Assay: Pharmacokinetics in Cynomolgus monkeys, single subcutaneous or intravenous dose
Type: in vivo
Settings: both sexes, cynomolgus monkey, plasma, sc, 187 nmol/kg, single subcutaneous dose 187 nmol/kg, Mean
*1 amine or outer side, *2 acyl side, *3 side chain or, on linkers, in order; H or OH if unused. Side-chain parts run from the residue outwards. [ ]: non-standard residue; d: D form. The star is where a group is joined. C20 diacid = O=C(O)CCCCCCCCCCCCCCCCCCC(=O)*; γGlu = O=C(O)[C@H](CCC(=O)[*:2])N[*:1]; εLys = N[C@@H](CCCCN[*:1])C(=O)[*:2]; αMeL = CC(C)C[C@](C)(N)C(=O)O; AEEA = NCCOCCOCC(=O)O; Aib = CC(C)(N)C(=O)O
quantity: half-life

In: Quick one: half-life of Ac-GSPSIVTS[αMeL]DVPT[Aib][αMeL]LQKILEQERAEKARQQAK([γGlu-AEEA-εLys-C20 diacid])EAAEILAQV-NH2 [SEQ ID NO: 1] ?
Out: 81.9 h
